target: N_WT (nucleocapsid, Wuhan) (SARS-CoV-2 (Wuhan), UniProt P0DTC9 1-419); assay: MST; details: protein: recombinant; tags: 6xHis; chain copies: 2; label: Cy5 (Methods EMSA: Cy3)
VALUE_KIND: pKd
Scale: pKd equals -log10([C]), with [C] in mol/L.

Please look up its pKd: AACCAUAACAUGACCAUGAGGUGCAG (ssRNA) [ssRNA3] 5.90
